Target Under Test: human ENT1 (Homo sapiens)
Sequence (Q99808 whole entry): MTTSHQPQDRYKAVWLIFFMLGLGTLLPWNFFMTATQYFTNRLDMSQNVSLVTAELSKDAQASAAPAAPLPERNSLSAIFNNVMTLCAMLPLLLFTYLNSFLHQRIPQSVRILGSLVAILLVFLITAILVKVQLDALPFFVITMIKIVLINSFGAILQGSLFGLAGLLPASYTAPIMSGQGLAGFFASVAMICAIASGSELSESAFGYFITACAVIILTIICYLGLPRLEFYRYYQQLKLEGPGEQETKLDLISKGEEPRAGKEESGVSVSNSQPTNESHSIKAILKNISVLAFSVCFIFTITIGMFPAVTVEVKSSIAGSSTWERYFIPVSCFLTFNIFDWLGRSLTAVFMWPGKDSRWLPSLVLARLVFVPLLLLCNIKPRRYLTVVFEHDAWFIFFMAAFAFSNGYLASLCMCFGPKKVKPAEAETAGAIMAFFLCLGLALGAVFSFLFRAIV
Assay Info: ENT1 binding assay (competition with Sahenta-DY647 on JAR cells)
Set-up: JAR cells expressing ENT1 were bought from ATCC; host or cells: JAR cells
Experimental Parameters: binned IC50
pIC50: −log10 of the molar value.
This listing pairs compounds with measured pIC50.

> print(dat)
                                   compound  recorded.value
1  COCCN(CCOC)c1nc(N2CCN(c3nc(C)ns3)CC2)c2nc(N(CCOC)CCOC)nc(N3CCC(OC)CC3)c2n1 [Compound 123]    6.30 to 7.00
2  COCCN(CCOC)c1nc(N2CCC(OC)CC2)c2nc(N3CCn4ncnc4C3)nc(N3CCN(C)C(=O)C3)c2n1 [Compound 282]    6.30 to 7.00
3  COCCN(CCOC)c1nc(N2CC(=O)N(C)C(C)(C)C2)c2nc(N(CCO)CCO)nc(N3CCC(OC)CC3)c2n1 [Compound 312]    6.30 to 7.00
4  COCCN(CCOC)c1nc(N2CCC(OC)CC2)c2nc(N(CCOC)CCOCCCN3CCN(C)CC3)nc(N3CCC(OC)CC3)c2n1 [Compound 16]    6.00 to 6.30
5  COCCN(CCOC)c1nc(N2CCS(=O)(=O)CC2)c2nc(N(CCOC)CCOC)nc(N3CCS(=O)(=O)CC3)c2n1 [Compound 37]    6.00 to 6.30
6  COCCN(CCOC)c1nc(N2CCc3c(cnn3C)C2)c2nc(N(CCOC)CCOC)nc(N3CCN(C)C(=O)C3)c2n1 [Compound 255]          > 7.00

Which pIC50 value is on record for COCCN(CCOC)c1nc(N2CCN(C)C(=O)C2)c2nc(N(CCOC)CCOC)nc(N(C)Cc3ccccc3)c2n1 [Compound 230] ? > 7.00

Which pIC50 value is on record for COCCN(CCOC)c1nc(N2CCn3ncnc3C2)c2nc(N(CCOC)CCOC)nc(N3CCn4ncnc4C3)c2n1 [Compound 9] ? 6.30 to 7.00

Which pIC50 value is on record for COCCN(CCOC)c1nc(N2CCC(OC)CC2)c2nc(N(CCOC)CCOC)nc(N(C)Cc3ccncc3)c2n1 [Compound 82] ? 6.30 to 7.00

Which pIC50 value is on record for COCCN(CCOC)c1nc(N2CCC(OC)CC2)c2nc(N3CCN(S(C)(=O)=O)CC3)nc(N3CCC(OC)CC3)c2n1 [Compound 30] ? 6.00 to 6.30

This collection of values is drawn from patent US20230146675A1.
